# Tested on: MDA-MB-231 (human breast adenocarcinoma)
# test.description: Growth inhibition / cell viability (Cell Titer-Glo) on MDA-MB-231 cells
# Type: cell-based
# experimental.parameters: 48 hours, tested up to 100 μM
pIC50: −log10 of the molar value.
endpoint.name: pIC50

What measured pIC50 goes with CC(C)Cc1ccc(C(C)C(=O)O)cc1 (racemic) ?
< 4.00
